Tested on: HaCat
Assay: Cytotoxic Profiling of Annotated Libraries Using Quantitative High-Throughput Screening (AID 1296008); note: nearly all actives have a fitted effect of over 60% in size
Conditions: Five cell lines viability, CellTiter-Glo ATP luminescence, 48-72 h
Inconclusive results are not listed. Activity calls are given as the source filed them. Calls come from the whole dose curve; as a rule, active = well fitted inhibition curve with a large enough effect; inconclusive = small, poorly fitted or top-dose-only effect; inactive = flat fitted curve, though single readings scatter.
Select the correct class. Options are active, inactive and nothing else.

molecule	answerLabel
COc1cc(OC)c(NC(=O)Nc2cc(C)on2)cc1Cl	inactive
CC(C=CC=C(C)C=CC1=C(C)CCCC1(C)C)=CC=CC=C(C)C=CC=C(C)C=CC1=C(C)CCCC1(C)C	inactive

## Input Please share the test call associated with Cc1coc2c1C(=O)C(=O)c1c-2ccc2c(C)cccc12 .
## Output inactive

## Input Now consider O=C(O)CCCCC(CCSCc1ccccc1)SCc1ccccc1 (stereo not given) .
## Output inactive

## Input Now consider Nc1nc(N)c2nc(-c3cccc(O)c3)c(-c3cccc(O)c3)nc2n1 .
## Output active

---

Experiment: qHTS profiling of the MIPE4 collection as inhibitors of Plasmodium falciparum (HB3) proliferation (AID 743347);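 note: plate controls were DMSO vehicle wells for no effect and artemisinin wells for full effect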
Conditions: P. falciparum HB3 in erythrocytes, SYBR Green DNA, 72 h; at 28.5 µM (top of the series) unless noted
reportedEndpoint: growth, % of control (%)
Just the number in %, nothing appended.

## Input Field request: growth, % of control | item: Cc1noc(-c2ccc(CSCCC(=O)O)cc2)c1NC(=O)OC(C)c1ccccc1Cl (centres undefined)
## Output 61.1

## Input Now consider COc1ccc(Nc2cc(-c3cnc(N)nc3)nc(N3CCOCC3)n2)cn1 .
## Output 6.14

## Input Now consider COc1cc2c(cc1O)CCC1C2CC[C@@]2(C)C1CC[C@@H]2O (some centres undefined) .
## Output 59.7

---

Assay: qHTS of pediatric cancer cell lines to identify multiple opportunities for drug repurposing: Confirmatory screen for SK-N-MC cells (AID 1347111);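 note: cells exposed to compound for 48 h before the readout; nearly all actives have a fitted effect of over 70% in size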
Details: SK-N-MC cell viability; series mostly up to 45.9 µM
Inconclusive results are not listed. Calls of active or inactive are those of the source. Calls follow the shape of the dose curve; as a rule, active = well fitted cell-killing curve with a large enough effect; inconclusive = small, poorly fitted or top-dose-only effect; inactive = no such curve, though single readings can be large or run the other way. Non-standard residues stand in square brackets, D forms with d. Residues, ends and D or L forms follow the SMILES beside them. *: point of attachment. Nva = CCC[C@H](N)C(=O)O; Cbz = O=C(OCc1ccccc1)*
Select the correct class. Options are active, inactive and nothing else.

Solved entries (count: 4):
molecule	answerLabel
Cn1cnc(=N)c2[nH]cnc21	inactive
CC(N[C@H]1CCCC[C@H]1NC(=O)c1ccc(Cl)cc1)c1cccc2ccccc12 (stereo not given in full)	active
COc1ccc(C=Cc2cc(OC)c(OC)c(OC)c2)cc1NC(=O)[C@H](N)CO	active
C[C@@]12C(=O)OC(=O)[C@@]1(C)C1CCC2O1	active

## Input Please share the test call associated with O=C(NC1CC1)c1cccc(-c2ccc3c(NC(=O)C4CC4)n[nH]c3c2)c1 .
## Output active

## Input Now consider O=C1NCCc2[nH]c(-c3ccncc3)cc21 .
## Output active

## Input Now consider NC(=O)Nc1sc(-c2ccc(F)cc2)cc1C(N)=O .
## Output active

## Input Now consider Nc1ncn([C@@H]2O[C@H](CO)[C@@H](O)[C@@H]2O)c(=O)n1 .
## Output active

## Input Now consider C[C@H](NCc1ccc2c(c1)nc(NC(=O)c1ccc(-c3cn[nH]c3)s1)n2CCc1ccccc1)C(C)(C)C .
## Output active

## Input Now consider C[C@@H](Oc1ccc2[nH]nc(C=Cc3cnn(CCO)c3)c2c1)c1c(Cl)cncc1Cl .
## Output active

## Input Now consider CCOC(=O)C1=C(C)NC(=S)NC1c1cccc(O)c1 (stereo not given) .
## Output active

## Input Now consider CC(C)C[C@@H](C=O)NC(=O)[C@H](CC(C)C)NC(=O)[C@H](CC(C)C)NC(=O)OCc1ccccc1 (Cbz-Leu-Leu-Leu-aldehyde) .
## Output active

## Input Now consider CCC[C@@H](C=O)NC(=O)[C@H](CC(C)C)NC(=O)[C@H](CC(C)C)NC(=O)OCc1ccccc1 (Cbz-Leu-Leu-[Nva]-aldehyde) .
## Output active

## Input Now consider COc1ccc(Nc2cc(-c3cnc(N)nc3)nc(N3CCOCC3)n2)cn1 .
## Output active

## Input Now consider COc1cccc2c1C(=O)c1c(O)c3c(c(O)c1C2=O)C[C@@](O)(C(C)=O)C[C@H]3O[C@H]1C[C@H](N)[C@H](O)[C@H](C)O1 .
## Output active

## Input Now consider COc1ccc(C(C)=O)c(O)c1 .
## Output inactive

## Input Now consider CCOC(=O)[C@@H](N)Cc1ccc(-c2cc(O[C@H](c3ccc(Cl)cc3-n3ccc(C)n3)C(F)(F)F)nc(N)n2)cc1 .
## Output active

## Input Now consider CCS(=O)(=O)Nc1ccc2[nH]c(O)c(C(=Nc3ccc(CN4CCCCC4)cc3)c3ccccc3)c2c1 .
## Output active

## Input Now consider N#CNC(=NCCCCCCOc1ccc(Cl)cc1)Nc1ccncc1 .
## Output active

## Input Now consider COc1cccc2c1C(=O)c1c(O)c3c(c(O)c1C2=O)C[C@@](O)(C(=O)CO)C[C@@H]3O[C@H]1C[C@H](N)[C@@H](O)[C@H](C)O1 .
## Output active

Where do these numbers come from? They come from PubChem BioAssay (NCATS).
